# system-under-test: PAS domain-containing serine/threonine-protein kinase (Homo sapiens) (UniProt Q96RG2)
# Sequence (Q96RG2 whole entry, the tested form may be a part): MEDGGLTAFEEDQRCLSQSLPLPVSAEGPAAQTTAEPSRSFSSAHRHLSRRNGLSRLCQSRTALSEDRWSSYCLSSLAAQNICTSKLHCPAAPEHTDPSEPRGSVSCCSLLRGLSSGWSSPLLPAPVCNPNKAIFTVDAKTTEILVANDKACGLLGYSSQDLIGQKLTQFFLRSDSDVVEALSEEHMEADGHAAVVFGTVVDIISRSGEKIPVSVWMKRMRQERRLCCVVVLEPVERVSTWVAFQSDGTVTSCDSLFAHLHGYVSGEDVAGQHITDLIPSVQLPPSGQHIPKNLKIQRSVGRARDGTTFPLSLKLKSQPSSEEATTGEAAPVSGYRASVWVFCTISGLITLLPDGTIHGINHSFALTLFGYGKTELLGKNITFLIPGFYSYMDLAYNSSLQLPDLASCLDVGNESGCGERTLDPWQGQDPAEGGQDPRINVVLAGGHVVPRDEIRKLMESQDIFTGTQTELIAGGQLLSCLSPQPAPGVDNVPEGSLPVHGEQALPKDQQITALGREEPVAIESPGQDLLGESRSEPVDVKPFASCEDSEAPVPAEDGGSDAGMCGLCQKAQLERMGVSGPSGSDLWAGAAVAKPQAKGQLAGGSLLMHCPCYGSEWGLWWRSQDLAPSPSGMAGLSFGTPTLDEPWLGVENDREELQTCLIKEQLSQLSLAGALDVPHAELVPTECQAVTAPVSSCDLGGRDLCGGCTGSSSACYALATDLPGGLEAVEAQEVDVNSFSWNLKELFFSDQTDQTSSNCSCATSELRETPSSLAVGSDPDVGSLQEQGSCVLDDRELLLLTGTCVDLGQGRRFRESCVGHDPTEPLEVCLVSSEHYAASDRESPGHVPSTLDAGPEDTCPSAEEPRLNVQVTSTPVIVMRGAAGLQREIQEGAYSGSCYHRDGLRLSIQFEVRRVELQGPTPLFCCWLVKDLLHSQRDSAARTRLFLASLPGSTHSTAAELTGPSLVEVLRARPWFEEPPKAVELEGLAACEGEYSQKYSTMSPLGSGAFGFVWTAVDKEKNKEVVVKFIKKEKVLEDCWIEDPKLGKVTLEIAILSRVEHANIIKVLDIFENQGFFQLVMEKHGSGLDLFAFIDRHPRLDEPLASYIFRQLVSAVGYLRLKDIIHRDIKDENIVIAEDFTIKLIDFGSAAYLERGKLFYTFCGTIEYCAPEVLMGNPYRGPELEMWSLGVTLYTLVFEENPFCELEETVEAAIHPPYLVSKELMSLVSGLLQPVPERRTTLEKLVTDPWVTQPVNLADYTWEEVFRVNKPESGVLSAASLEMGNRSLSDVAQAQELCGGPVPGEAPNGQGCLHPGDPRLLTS
# condition-label: at 1 µM
quantity-kind: residual activity (%)
Number in %, nothing else.

*Q* Quote residual activity reported for O=C(O)/C=C/c1cc(Br)c(Br)c(Br)c1Br please.
*A* 63

*Q* Quote residual activity reported for O=c1[nH]c2ccccc2n1C1CCN(Cc2ccc(-c3nc4cc5[nH]cnc5cc4nc3-c3ccccc3)cc2)CC1 please.
*A* 86

*Q* Quote residual activity reported for CC#CC(=O)Nc1cc2c(Nc3ccc(F)c(Cl)c3)ncnc2cn1 please.
*A* 101

# ---- query compound ----
*Q* Quote residual activity reported for Nc1ncnc2[nH]nc(Nc3ccc(F)cc3)c12 please.
*A* 92
